# System: RXF 393
# experimentSummary: NCI tumour cell line growth inhibition, 48 h
The source made the active and inactive calls. Cut-off read from the data, not from the text of the source: active = GI50 up to about 1.1 µM and inactive = higher.
measurementName: GI50

Illustrative cases are given below, each with its answer.
>>> testvalue("Cc1csc2c1C(=O)c1ccsc1C2=O")
"3.21 µM (inactive)"
>>> testvalue("O=[As](O)(O)c1ccc(Cc2ccc([As](=O)(O)O)cc2)cc1")
"0.413 µM (active)"
>>> testvalue("CN1CCN(C(=S)N2CCN(C)CC2)CC1")
"> 100 µM (inactive)"
>>> testvalue("CC12ON=C(c3ccccc3)N1C=CN1C(c3ccccc3)=NOC12 (stereo unspecified)")
"64.9 µM (inactive)"

For each of the molecules below, state GI50.
1. Nc1nc(=O)n([C@@H]2CC[C@H](CO)O2)cc1F
2. CCOC(=O)c1c(Sc2ccc([N+](=O)[O-])cc2[N+](=O)[O-])nc2c3ccccc3ccn12

**Result**
1. > 100 µM (inactive)
2. 21 µM (inactive)

###

# Test system: DMS-273
# experimentSummary: NCI tumour cell line growth inhibition, 48 h
Active and inactive are the calls of the source. Cut-off read from the data, not from the text of the source: active = GI50 up to about 1.1 µM and inactive = higher.
Would you mind answering with one of these outcomes? YES = active, NO = inactive

Look over these answered cases.
>>> category("O=c1[nH]cc(C(F)(C(F)(F)F)C(F)(F)F)c(=O)[nH]1")
"NO"
>>> category("CS(=O)(=O)c1ccc(-c2cc(-c3ccc(S(C)(=O)=O)cc3)[n+](-c3cc(-c4ccccc4)c([O-])c(-c4ccccc4)c3)c(-c3ccc(S(C)(=O)=O)cc3)c2)cc1")
"NO"
>>> category("CCCCCCC1CCC2CCCC(C)N12 (stereo not given)")
"NO"
>>> category("C=C1C(=O)C[C@@]23CCC[C@@]12CC(OCOC)C3 (stereo not given in full)")
"NO"

Shift focus to the following entry.
**Query** Just curious, what result did CO[C@@]12[C@H](COC(N)=O)C3=C(C(=O)C(C)=C(N)C3=O)N1C[C@H]1[C@@H]2N1C (stereo not given in full) get here?
**Result** YES

###

# System: EKVX
# experimentSummary: NCI tumour cell line growth inhibition, 48 h
Activity calls are given as the source filed them. Rule as the data show it: active = GI50 up to about 1.1 µM and inactive = higher.
measurementName: GI50

Illustrative cases are given below, each with its answer.
>>> testvalue("Cn1nc(-c2ccccc2)c(C(=O)/C=C/c2ccc(F)cc2)c(N2CCCCC2)c1=O")
"16.3 µM (inactive)"
>>> testvalue("C=C1C(=O)OC2/C=C(/C)C(OC(C)=O)C/C=C(\\C)C(OC(=O)C3(C)OC3C)C(O)C12 (stereo unspecified)")
"> 100 µM (inactive)"
>>> testvalue("COC(=O)C1(Cc2cccc(Cl)c2)CCCCCCN1C(=O)c1ccccc1 (stereo unspecified)")
"12 µM (inactive)"
>>> testvalue("NS(=O)(=O)c1cc(Cl)c(NC(=S)NC(=O)Nc2ccc(Cl)c(Cl)c2)c(Cl)c1")
"28.4 µM (inactive)"
>>> testvalue("CC(N)C(C)Cc1ccccc1 (stereo unspecified)")
"> 100 µM (inactive)"

For each of the molecules below, state GI50.
1. CC(=O)O[C@H]1/C(=C/c2ccncc2)C[C@H]2[C@@H]3CC=C4C[C@@H](N5CCCC5)CC[C@]4(C)[C@H]3CC[C@]12C
2. Cc1ccc(NC(=O)CCC(=O)C(C#N)c2ccc(Cl)cc2)cc1C (stereo unspecified)
3. CCCCCCCCCCCCCCCC(=O)OCCOCCOCCOCCOCCOC(=O)CCCCCCCCCCCCCCC

**Result**
1: 13.9 µM (inactive); 2: > 100 µM (inactive); 3: > 100 µM (inactive)

For each of the molecules below, state GI50.
1. Cc1ccccc1-n1c(=S)[nH]c2c(sc(=O)n2-c2ccccc2C)c1=O
2. CC(=O)n1c2ccc(Br)cc2c2nc3ccccc3nc21

**Result**
["> 100 µM (inactive)", "> 100 µM (inactive)"]

For each of the molecules below, state GI50.
1. COc1cc(NS(C)(=O)=O)ccc1Nc1c2ccccc2nc2ccccc12
2. COc1ccc2c3c1OC1C4(CCC5C(C2)N(CC2CC2)CCC351)OCCO4 (stereo unspecified)
3. Cc1cc(C)c(N[S+]([O-])c2ccc(Cl)cc2)c(C)c1 (stereo unspecified)
4. Cc1ccc(S(=O)(=O)N/N=C/CN2C(=O)c3ccccc3C2=O)cc1

**Result**
1. 2.08 µM (inactive)
2. > 100 µM (inactive)
3. > 100 µM (inactive)
4. > 100 µM (inactive)

For each of the molecules below, state GI50.
1. CCN(CC)C(=S)Oc1cc2oc(=O)cc(C)c2cc1Cl
2. CC(C(=O)n1nnc2ccccc21)N(c1ccccc1)c1ccccc1 (stereo unspecified)
3. CC(C)(C)C1=CC(CCC(=O)Nc2ccccc2[N+](=O)[O-])=NC(S)N1 (stereo unspecified)
4. O=C(Nc1ccccc1)C(=O)C(C(=O)c1ccccc1)C(c1ccccc1)c1ccccc1 (stereo unspecified)

**Result**
["> 100 µM (inactive)", "68.2 µM (inactive)", "> 100 µM (inactive)", "> 10 µM (inactive)"]

For each of the molecules below, state GI50.
1. CC(C)NCC(O)COC(=O)c1cccs1 (stereo unspecified)
2. Cc1cc(SCC(=O)c2ccc(Br)cc2)cc(C)[o+]1
3. O=C(c1cccc(F)c1F)N1CCc2c([nH]c3ccccc23)C1c1ccc2c(c1)OCO2 (stereo unspecified)

**Result**
["> 100 µM (inactive)", "12.4 µM (inactive)", "8.32 µM (inactive)"]

###

# System: PC-3
# experimentSummary: NCI tumour cell line growth inhibition, 48 h
Calls of active or inactive are those of the source. Rule as the data show it: active = GI50 up to about 1.1 µM and inactive = higher.
Would you mind answering with one of these outcomes? active, inactive

>>> category("CC(OC(C)(C)C)[C@H](NC(=O)OC(C)(C)C)C(=O)O (stereo partly specified)")
"inactive"
>>> category("Cc1cc(C)c(N[S+]([O-])c2ccc(Cl)cc2)c(C)c1 (stereo unspecified)")
"inactive"
>>> category("O=[As](O)(O)c1ccc(Cc2ccc([As](=O)(O)O)cc2)cc1")
"active"
>>> category("Cc1nc2cccc(F)c2c(=O)n1C1CCCCNC1=O (stereo unspecified)")
"inactive"
>>> category("O=C(NNS(=O)(=O)c1ccccc1)c1csc(NC(=S)NC2CCCCC2)n1")
"inactive"
>>> category("CCCC(CC)c1c(O)c(O)c(C(CC)CCC)c(C(CC)CCC)c1C(CC)CCC (stereo unspecified)")
"inactive"

**Query** Just curious, what result did "COc1cc(N(C)C)ccc1C=c1c2ccccc2n2c1cc(-c1ccccc1)[n+]2C" get here?
**Result** active

**Query** Just curious, what result did O=C(Nc1ccccc1)C(=O)C(C(=O)c1ccccc1)C(c1ccccc1)c1ccccc1 (stereo unspecified) get here?
**Result** inactive

**Query** Just curious, what result did "Oc1ccc2ccccc2c1/N=N/c1ccc(Br)cc1" get here?
**Result** inactive

**Query** Just curious, what result did CN(C)c1cccc2c(S(=O)(=O)NCCN)cccc12 [DANSYL ETHYLENEDIAMINE] get here?
**Result** inactive

**Query** Just curious, what result did "CCN(CC)C(=S)N/N=C/c1ccccn1" get here?
**Result** active

###

# Test system: SNB-19
# experimentSummary: NCI tumour cell line growth inhibition, 48 h
Activity calls are given as the source filed them. No stated cut-off is given here; in the data, active = GI50 up to about 1.1 µM and inactive = higher.
measurementName: GI50

>>> testvalue("COC(=O)c1cc(C(=CCC[C@H]2CC[C@@]3(C)C(CCC4C3CC[C@@]3(C)C4CC[C@@H]3C(C)CCCC(C)C)C2)c2cc(Cl)c(OC(=O)c3ccccc3)c(C(=O)OC)c2)cc(Cl)c1OC(=O)c1ccccc1 (some centres undefined)")
"> 10 µM (inactive)"
>>> testvalue("Cc1sc(Nc2ccccc2[N+](=O)[O-])c(C#N)c1C")
"26.2 µM (inactive)"
>>> testvalue("CC(=O)NNc1nc(C)c(C(=O)/C=C/c2ccc(Cl)c(Cl)c2)s1")
"> 100 µM (inactive)"

Please examine the following record next.
**Query** Requested read-out: GI50. Entry: Cc1ccc(/N=N/C2S/C(=C(\C#N)c3nc4ccccc4[nH]3)N(c3ccccc3)C2=O)cc1 (centres undefined)
**Result** 99.1 µM (inactive)

###

# System: UACC-257
# experimentSummary: NCI tumour cell line growth inhibition, 48 h
Calls of active or inactive are those of the source. Rule as the data show it: active = GI50 up to about 1.1 µM and inactive = higher.
Would you mind answering with one of these outcomes? active, inactive

>>> category("CC(=O)O[C@H]1CCC2[C@@H]3CCC4NC(=O)C(C#N)C[C@]4(C)C3CC[C@@]21C (stereo partly specified)")
"inactive"
>>> category("Cc1cn(CCOCCOC(=O)NC(CCCNC(=N)N)C(=O)O)c(=O)[nH]c1=O (stereo unspecified)")
"inactive"
>>> category("CC1(C)CCCCC1/C=C/C(CC(O)(C(F)(F)F)C(F)(F)F)=N\\Nc1ccc([N+](=O)[O-])cc1[N+](=O)[O-] (stereo unspecified)")
"active"

**Query** Just curious, what result did COc1cc(-c2[nH]ccc2Cl)oc1C1=C2N=C3C=C2C(C(C)C)C1CCCCCCCC3 (stereo unspecified) get here?
**Result** inactive

**Query** Just curious, what result did "COc1ccc(C(=O)c2[nH]c(Nc3cc(C)ccn3)c(C(=S)Nc3ccccc3)c2N)cc1" get here?
**Result** inactive

**Query** Just curious, what result did "O=C1/C(=C/c2ccccc2)N=C2Sc3c([nH]cnc3=O)N12" get here?
**Result** inactive

**Query** Just curious, what result did "COc1ccc(-c2ncn(C[Si](C)(C)C)c2-c2ccc(OC)cc2)cc1" get here?
**Result** inactive

**Query** Just curious, what result did "O=CNNC(=O)Nc1ccc(Cl)cc1" get here?
**Result** inactive
